Origin of the recorded values: the NIST ThermoML archive (doi:10.1021/acs.jced.5b00242)

For each of the molecules below, state its mass density.
# Condition Context: 333.15 K; 101.33 kPa; Liquid; Vibrating tube method
Supply the numeric figure in kg/m3, leaving out any unit text.

Task: Which mass density is reported for this molecule? CCn1cc[n+](C)c1.NCCS(=O)(=O)[O-] [1-ethyl-3-methylimidazolium taurinate]
Output: 1229.2

Task: Which mass density is reported for this molecule? CCn1cc[n+](C)c1.C[C@H](N)C(=O)[O-] [1-ethyl-3-methylimidazolium L-alaninate]
Output: 1101.3

Task: Which mass density is reported for this molecule? CC[n+]1ccn(C)c1.N[C@@H](CO)C(=O)[O-] [3-ethyl-1-methyl-1H-imidazolium L-serinate]
Output: 1181.7

Task: Which mass density is reported for this molecule? CCn1cc[n+](C)c1.NCC(=O)[O-] [1-ethyl-3-methylimidazolium ammonioacetate]
Output: 1139.9

Task: Which mass density is reported for this molecule? CCn1cc[n+](C)c1.O=C([O-])[C@@H]1CCCN1 [1-ethyl-3-methyl-1H-imidazolium L-prolinate]
Output: 1121

---

For each of the molecules below, state its mass density.
# Condition Context: 323.15 K; 101.33 kPa; Liquid; Vibrating tube method
Supply the numeric figure in kg/m3, leaving out any unit text.

Task: Which mass density is reported for this molecule? CCn1cc[n+](C)c1.O=C([O-])[C@@H]1CCCN1 [1-ethyl-3-methyl-1H-imidazolium L-prolinate]
Output: 1127.1

Task: Which mass density is reported for this molecule? CC[n+]1ccn(C)c1.N[C@@H](CO)C(=O)[O-] [3-ethyl-1-methyl-1H-imidazolium L-serinate]
Output: 1187.8

Task: Which mass density is reported for this molecule? CCn1cc[n+](C)c1.NCC(=O)[O-] [1-ethyl-3-methylimidazolium ammonioacetate]
Output: 1146

Task: Which mass density is reported for this molecule? CCn1cc[n+](C)c1.C[C@H](N)C(=O)[O-] [1-ethyl-3-methylimidazolium L-alaninate]
Output: 1107.5

Task: Which mass density is reported for this molecule? CCn1cc[n+](C)c1.NCCS(=O)(=O)[O-] [1-ethyl-3-methylimidazolium taurinate]
Output: 1235.5

---

# Protocol Summary: refractive index (Na D-line) (dimensionless)
# Condition Context: 303.15 K; 101 kPa; Liquid; Standard Abbe refractometry
Result Type: refractive index
# answer = number (no unit)

Task: Which refractive index is reported for this compound? CCn1cc[n+](C)c1.O=C([O-])[C@@H]1CCCN1 [1-ethyl-3-methyl-1H-imidazolium L-prolinate]
Output: 1.52009

Task: Which refractive index is reported for this compound? CCn1cc[n+](C)c1.NCCS(=O)(=O)[O-] [1-ethyl-3-methylimidazolium taurinate]
Output: 1.51084

Task: Which refractive index is reported for this compound? CC[n+]1ccn(C)c1.N[C@@H](CO)C(=O)[O-] [3-ethyl-1-methyl-1H-imidazolium L-serinate]
Output: 1.52429

Task: Which refractive index is reported for this compound? CCn1cc[n+](C)c1.C[C@H](N)C(=O)[O-] [1-ethyl-3-methylimidazolium L-alaninate]
Output: 1.51081

Task: Which refractive index is reported for this compound? CCn1cc[n+](C)c1.N#C[C-](C#N)C#N [1-ethyl-3-methyl-1H-imidazolium tricyanomethanide]
Output: 1.51114

Task: Which refractive index is reported for this compound? CCn1cc[n+](C)c1.NCC(=O)[O-] [1-ethyl-3-methylimidazolium ammonioacetate]
Output: 1.5186
